The listing below reports IC50 for molecules tested on UniProt A0A0S4TER9.
Readout type: IC50

[
  {
    "Molecule": "CC(=O)N[C@@H]1[C@@H](O)[C@H](O[C@@H]2O[C@H](CO)[C@@H](O)[C@H](O)[C@H]2NC(C)=O)[C@@H](CO)O[C@H]1O [Chitodextrin]",
    "Study system": "UniProt A0A0S4TER9",
    "Readout type": "IC50",
    "Result": "> 500 µM"
  },
  {
    "Molecule": "COc1cccc2c1C(=O)C1=C(C2=O)C(O)C2=C(C1O)[C@@H](C[C@@H]1C[C@H](N)[C@@H](O)[C@H](C)O1)C[C@@](O)(/C(C)=N/NC(=O)c1ccccc1)C2 (stereo partly shown) [Rubidazone]",
    "Study system": "UniProt A0A0S4TER9",
    "Readout type": "IC50",
    "Result": "> 500 µM"
  },
  {
    "Molecule": "CC(=O)N1CCN(c2ccc(OCC3COC(Cn4ccnc4)(c4ccc(Cl)cc4Cl)O3)cc2)CC1 (stereo not shown) [Ketoconazole, reference compound]",
    "Study system": "UniProt A0A0S4TER9",
    "Readout type": "IC50",
    "Result": "> 500 µM"
  },
  {
    "Molecule": "C[C@H]1O[C@@H](O[C@H]2[C@@H](O)C[C@H](O[C@H]3[C@@H](O)C[C@H](O[C@H]4CC[C@@]5(C)[C@H](CC[C@@H]6[C@@H]5C[C@@H](O)[C@]5(C)[C@@H](C7=CC(=O)OC7)CC[C@]65O)C4)O[C@@H]3C)O[C@@H]2C)C[C@H](O)[C@@H]1O [Digoxin, reference compound]",
    "Study system": "UniProt A0A0S4TER9",
    "Readout type": "IC50",
    "Result": "> 500 µM"
  }
]
